# assay.text: Steady state kinetics of purified NTR, variable substrate NADH
# Assay type: biochemical
# condition.set: fixed substrate nitrofurazone, 10 mM Tris HCl pH 7.0, 25° C., 4% DMSO
measurement.name: Km
Could you write the number and then its unit?

# input molecule: T41L: NTR mutant, threonine 41 to leucine (protein) MDIISVALKRHSTKAFDASKKLTPEQAEQIKTLLQYSPSSLNSQPWHFIVASTEEGKARVAKSAAGNYVFNERKMLDASHVVVFCAKTAMDDVWLKLVVDQEDADGRFATPEAKAANDKGRKFFADMHRKDLHDDAEWMAKQVYLNVGNFLLGVAALGLDAVPIEGFDAAILDAEFGLKEKGYTSLVVVPVGHHSVEDFNATLPKSRLPQNITLTEV ; wanted: its Km
5 µM
